# target_of_assay: JARID1B (Homo sapiens)
# Construct: The FLAG tagged full length JARID1B enzyme was expressed in Sf21 insect cells using FLAG-JARID1B baculoviruses; FLAG (N); made in house; host or cells: Sf21 insect cells (baculovirus)
# assay_details: FLAG-JARID1B histone demethylase assay with AlphaScreen detection (HTS and dose response)
# Type: biochemical
# cond: high-throughput screen, compound 20 μM, standard demethylase conditions (10 μM α-KG, 50 μM Fe (II)); read-out: Inhibitory effect (percent)
property_name: inhibition at 20 µM (%)
The answer is to be given in %; state only the numeric part.

Cn1c(=O)n(C)c2cc(S(=O)(=O)NNc3ccccc3)ccc21 ... 49.6

Can you look up the measured inhibition at 20 µM of N#CC(=Cc1ccc(N2CCCCC2)o1)c1ccc([N+](=O)[O-])cc1 (single isomer, unassigned) for me?
42

Using the record for COC(=O)NC1(C(F)(F)F)C(=O)NC(C)=C1C(=O)OC (centres unmarked) , report its inhibition at 20 µM.
34

Reported inhibition at 20 µM for "COc1ccc(OC)c(Nc2nc(=O)c3cccnc3s2)c1" : what is it?
47.6

What value of inhibition at 20 µM has been recorded for this entry: "CCOc1cc(CN)cc(Cl)c1OCC.Cl"
68.6

* * *

Form field: inhibition at 20 µM (one value per entry).
# target_of_assay: JARID1B (Homo sapiens)
# Construct: The FLAG tagged full length JARID1B enzyme was expressed in Sf21 insect cells using FLAG-JARID1B baculoviruses; FLAG (N); made in house; host or cells: Sf21 insect cells (baculovirus)
# assay_details: FLAG-JARID1B histone demethylase assay with AlphaScreen detection (HTS and dose response)
# Format: biochemical
# cond: high-throughput screen, compound 20 μM, standard demethylase conditions (10 μM α-KG, 50 μM Fe (II)); read-out: Inhibitory effect (percent)

Reference set (5 entries):
COc1cccc(O)c1O [YU155465, 3-METHOXYCATECHOL, reference compound] ... 56.5%
C=C[C@@H](C1=CC(=O)C(OC)=C(OC)C1=O)c1ccccc1 [YU155075, 3,4-DIMETHOXY- DALBERGIONE, reference compound] ... 75.9%
CCCCC(=O)Nc1ccc(N2CCC(C(N)=O)(N3CCCCC3)CC2)c(C(=O)O)c1 ... 63.8%
N#CC(=Cc1cc(O)c(O)c(O)c1)C(N)=C(C#N)C#N (single isomer, unassigned) [YU154835, TYRPHOSTIN 51, reference compound] ... 69.7%
Clc1ccc2nc(-c3ccccn3)c(Nc3ccc4c(c3)OCCO4)n2c1 ... 94%

May I ask what inhibition at 20 µM has been recorded for "CN(C)CCn1c2c(c3ccccc31)CCCn1cnnc1-2.Cl" ?
41.2%

Requested read-out: inhibition at 20 µM. Entry: "O=C(O)c1cc2cc(Cc3ccccc3Cl)ccc2oc1=O"
84.4%

Requested field: inhibition at 20 µM. Item: O=c1c(O[C@@H]2O[C@H](CO)[C@H](O)[C@H](O)[C@H]2O)c(-c2ccc(O)c(O)c2)oc2cc(O)cc(O)c12 [YU221013, HYPEROSIDE, reference compound]
44.9%

Would you mind telling me what inhibition at 20 µM value was observed for "O=C(Nc1ccc(N2CCCC2)c(C(=O)O)c1)c1ccc(Br)cc1" ?
53%

Requested read-out: inhibition at 20 µM. Entry: "OC1CCN(C(=S)NC2CC2)CC1"
90.6%

What does the data say about its inhibition at 20 µM? Entry: "NS(=O)(=O)c1cccc(NC(=O)c2cccnc2Oc2ccccc2)c1"
34.2%

Entry Oc1cc(O)cc(/C=C/c2ccc(O)c(O)c2)c1 [YU154843, PICEATANNOL, reference compound] has what inhibition at 20 µM?
34%

* * *

# assay_details: AlphaScreen counterscreen against bio-H3K4me2 peptide in the absence of enzyme (artifact signal);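 note: counterscreen run without enzyme against bio-H3K4me2 peptide to remove false positive hits from the JARID1 demethylase AlphaScreen screen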
# cond: counterscreen, bio-H3K4me2 peptide, no enzyme
Reported Artifact signal: effect of the compound when it is incubated with bio-H3K4me2 peptide values are given for each entry in this list.
A bare number is all that is needed in reply.

O=C(Nc1ccc(N2CCCC2)c(C(=O)O)c1)c1ccc(Br)cc1 [YU208200] ... 20.10
O=c1c(O)c(-c2cc(O)c(O)c(O)c2)oc2cc(O)cc(O)c12 [YU155300, MYRICETIN, reference compound] ... 69.07
CC(C)=CCc1c2c(c3occ(-c4ccc(O)c(O)c4)c(=O)c3c1O)C=CC(C)(C)O2 [YU155407, POMIFERIN, reference compound] ... 10.52
COC(=O)C1=C(C)NC(=O)C1(Nc1nccs1)C(F)(F)F (stereo not drawn) [YU152562] ... −15.40
Cn1cc(C2=C(c3cn(CCCSC(=N)N)c4ccccc34)C(=O)NC2=O)c2ccccc21 [YU154853, Ro 31-8220, reference compound] ... 38.79

Bench note: what Artifact signal: effect of the compound when it is incubated with bio-H3K4me2 peptide did CC(NC(=O)c1ccco1)c1ccncc1 (stereo not drawn) [YU145239] show?
0.21

Data request, read-out Artifact signal: effect of the compound when it is incubated with bio-H3K4me2 peptide, for C[CH2][Hg][S]c1ccccc1C(=O)[O-] [YU034023, THIMEROSAL, reference compound]
−5.81

Look at this compound and give its reported Artifact signal: effect of the compound when it is incubated with bio-H3K4me2 peptide. O=C(O)c1cc(O)c(=O)c2c(O)c(O)c(O)cc2c1 [YU155193, PURPUROGALLIN-4- CARBOXYLIC ACID, reference compound]
−3.21

Tell me the measured Artifact signal: effect of the compound when it is incubated with bio-H3K4me2 peptide of Cc1ccc(C)n1NC(=O)c1ccc(O)cc1 [YU145520] , please.
1.80

Please give the measured Artifact signal: effect of the compound when it is incubated with bio-H3K4me2 peptide for this compound: O=c1c(O)cccc2cc(O)c(O)c(O)c12 [YU155440, PURPUROGALLIN, reference compound]
6.39

Entry CCOC(=O)c1ccc(NC(c2cccnc2)c2ccc3cccnc3c2O)cc1 (stereo not drawn) [YU172168] : reported Artifact signal: effect of the compound when it is incubated with bio-H3K4me2 peptide = ?
37.50

Which Artifact signal: effect of the compound when it is incubated with bio-H3K4me2 peptide is listed for Cn1cnc([N+](=O)[O-])c1Sc1[nH]cnc2ncnc1-2 [YU033698, AZATHIOPRINE, reference compound] ?
5.31

Would you kindly share the measured Artifact signal: effect of the compound when it is incubated with bio-H3K4me2 peptide for O=C(O[C@@H]1Cc2c(O)cc(O)cc2O[C@@H]1c1cc(O)c(=O)c2c(O)c(O)cc([C@H]3Oc4cc(O)cc(O)c4C[C@H]3OC(=O)c3cc(O)c(O)c(O)c3)c2c1)c1cc(O)c(O)c(O)c1 (stereo in doubt) [YU155100, THEAFLAVIN DIGALLATE, reference compound] ?
98.76

For the compound O=C1C=C2CC3(O)COc4c(ccc(O)c4O)C3=C2C=C1O (stereo not drawn) [YU155257, HEMATEIN, reference compound] , what Artifact signal: effect of the compound when it is incubated with bio-H3K4me2 peptide is on record?
99.07

Returns the measured Artifact signal: effect of the compound when it is incubated with bio-H3K4me2 peptide for the input compound. Input: COC(=O)c1cccc(NC(c2cccnc2)c2ccc3cccnc3c2O)c1 (stereo not drawn) [YU172172]
56.78

* * *

# target_of_assay: JARID1B (Homo sapiens, UniProt Q9UGL1)
# Construct: The FLAG tagged full length JARID1B enzyme was expressed in Sf21 insect cells using FLAG-JARID1B baculoviruses; FLAG (N); made in house; host or cells: Sf21 insect cells (baculovirus)
# Sequence (Q9UGL1 whole entry): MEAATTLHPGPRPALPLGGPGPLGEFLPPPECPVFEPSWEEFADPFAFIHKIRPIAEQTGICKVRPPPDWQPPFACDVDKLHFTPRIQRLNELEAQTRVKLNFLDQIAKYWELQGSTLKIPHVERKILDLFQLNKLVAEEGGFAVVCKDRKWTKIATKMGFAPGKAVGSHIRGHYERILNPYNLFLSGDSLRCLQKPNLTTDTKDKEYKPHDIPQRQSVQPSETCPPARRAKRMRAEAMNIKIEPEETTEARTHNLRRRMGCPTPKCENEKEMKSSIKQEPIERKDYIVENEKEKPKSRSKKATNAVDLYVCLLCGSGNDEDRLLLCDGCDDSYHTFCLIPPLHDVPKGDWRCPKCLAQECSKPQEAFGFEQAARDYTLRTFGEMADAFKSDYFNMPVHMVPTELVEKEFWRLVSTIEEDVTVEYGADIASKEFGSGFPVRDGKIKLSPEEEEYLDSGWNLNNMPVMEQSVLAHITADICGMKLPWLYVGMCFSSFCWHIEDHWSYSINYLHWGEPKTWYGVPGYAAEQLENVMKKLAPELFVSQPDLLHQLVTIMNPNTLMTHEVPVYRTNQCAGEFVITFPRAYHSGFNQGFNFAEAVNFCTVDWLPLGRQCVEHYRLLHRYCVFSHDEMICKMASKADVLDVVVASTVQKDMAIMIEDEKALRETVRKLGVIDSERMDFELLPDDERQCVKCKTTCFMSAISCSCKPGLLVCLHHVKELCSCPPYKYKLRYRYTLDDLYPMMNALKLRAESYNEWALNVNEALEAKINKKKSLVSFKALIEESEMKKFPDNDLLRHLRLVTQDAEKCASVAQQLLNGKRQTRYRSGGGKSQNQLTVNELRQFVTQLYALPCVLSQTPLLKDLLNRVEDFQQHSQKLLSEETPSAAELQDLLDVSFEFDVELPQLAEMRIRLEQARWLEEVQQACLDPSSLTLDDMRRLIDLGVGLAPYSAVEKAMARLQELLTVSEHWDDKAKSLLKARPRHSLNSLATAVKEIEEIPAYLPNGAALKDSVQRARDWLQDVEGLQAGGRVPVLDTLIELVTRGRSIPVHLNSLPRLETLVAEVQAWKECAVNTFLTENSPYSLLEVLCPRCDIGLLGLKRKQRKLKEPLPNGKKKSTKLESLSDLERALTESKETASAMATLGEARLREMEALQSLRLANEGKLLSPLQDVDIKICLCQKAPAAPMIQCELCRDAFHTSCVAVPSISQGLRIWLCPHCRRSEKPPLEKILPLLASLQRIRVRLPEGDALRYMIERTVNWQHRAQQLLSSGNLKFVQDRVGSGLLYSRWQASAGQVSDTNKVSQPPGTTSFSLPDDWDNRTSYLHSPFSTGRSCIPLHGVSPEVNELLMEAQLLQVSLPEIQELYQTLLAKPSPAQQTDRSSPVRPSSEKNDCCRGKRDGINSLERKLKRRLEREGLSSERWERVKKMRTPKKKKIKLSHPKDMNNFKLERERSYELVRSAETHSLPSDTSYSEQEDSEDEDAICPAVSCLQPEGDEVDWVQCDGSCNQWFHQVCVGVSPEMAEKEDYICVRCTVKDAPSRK
# assay_details: FLAG-JARID1B histone demethylase assay with AlphaScreen detection (HTS and dose response)
# Type: biochemical
# cond: high-throughput screen, compound 20 μM, standard demethylase conditions (10 μM α-KG, 50 μM Fe (II)); read-out: Inhibitory effect (percent)
Note to self: values exactly at 80% are 1. So inhibition at 20 µM at or above 80% is 1, below is 0.

Worked set:
S=C(Nc1cccc(Cl)c1Cl)Nn1cnnc1 ... 0
Cc1cccc(-n2c(=O)c(O)nc3cc([N+](=O)[O-])ccc32)c1 ... 0
N#CC(=Cc1ccc(O)c(O)c1)C(N)=S (single isomer, unassigned) [YU154834, TYRPHOSTIN 47, reference compound] ... 0

Is inhibition at 20 µM for "COc1ccc2nc(NCc3ccncc3)sc2c1" at or above 80%?
0

# check: inhibition at 20 µM of N#CC(=Cc1ccc(O)c(O)c1)C(N)=O (single isomer, unassigned) [YU154833, TYRPHOSTIN 46, reference compound] is greater than or equal to 80%
0

* * *

Listed below: Inhibitory effect (percent) values for each entry.
# target_of_assay: JARID1B (Homo sapiens, UniProt Q9UGL1)
# Construct: The FLAG tagged full length JARID1B enzyme was expressed in Sf21 insect cells using FLAG-JARID1B baculoviruses; FLAG (N); made in house; host or cells: Sf21 insect cells (baculovirus)
# assay_details: FLAG-JARID1B histone demethylase assay with AlphaScreen detection (HTS and dose response);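 note: FLAG-tagged JARID1B at 4 nM acting on a biotinylated H3K4me3 peptide, demethylation read by AlphaScreen luminescence, with hits checked against bio-H3K4me2 without enzyme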
# Format: biochemical
# cond: high-throughput screen, compound 20 μM, standard demethylase conditions (10 μM α-KG, 50 μM Fe (II))
Structures can show the parent of a compound that is named as a salt.
Report the value in % with no unit label.

N.N.[Cl][Pt][Cl] [YU034538, CISPLATIN, reference compound] ... 40.06
C[n+]1cc2c3c(ccc2c2ccc4cc5c(cc4c21)OCO5)OCO3.O=S(=O)([O-])O [YU155443, SANGUINARINE SULFATE, reference compound] ... 62.80
O=C(OC[C@H]1O[C@@H](OC(=O)c2cc(O)c(O)c(OC(=O)c3cc(O)c(O)c(O)c3)c2)[C@H](OC(=O)c2cc(O)c(O)c(OC(=O)c3cc(O)c(O)c(O)c3)c2)[C@@H](OC(=O)c2cc(O)c(O)c(OC(=O)c3cc(O)c(O)c(O)c3)c2)[C@@H]1OC(=O)c1cc(O)c(O)c(OC(=O)c2cc(O)c(O)c(O)c2)c1)c1cc(O)c(O)c(OC(=O)c2cc(O)c(O)c(O)c2)c1 (stereo in doubt) [YU155507, TANNIC ACID, reference compound] ... 105.46
C[n+]1cc2c3c(ccc2c2ccc4cc5c(cc4c21)OCO5)OCO3 [YU033662, SANGUINARINE SULFATE, reference compound] ... 86.66
O=C([O-])c1ccccc1-c1c2cc(Br)c(=O)cc-2oc2[c]([Hg][OH])c([O-])c(Br)cc12 [YU034068, MERBROMIN, reference compound] ... 99.27
C/C1=C2/[N-][C@H]([C@H](CC(N)=O)[C@@]2(C)CCC(=O)NC[C@@H](C)OP(=O)([O-])O[C@H]2[C@@H](O)[C@@H](n3cnc4cc(C)c(C)cc43)O[C@@H]2CO)[C@]2(C)N=C(/C(C)=C3N=C(/C=C4N=C1[C@@H](CCC(N)=O)C\4(C)C)[C@@H](CCC(N)=O)[C@]\3(C)CC(N)=O)[C@@H](CCC(N)=O)[C@]2(C)CC(N)=O.[Co] [YU034137, COBALAMINE, reference compound] ... 63.90

Would you mind telling me what Inhibitory effect (percent) value was observed for NNC(=O)c1ccncc1.Nc1ccc(C(=O)O)c(O)c1 [YU034557, PASINIAZID, reference compound] ?
46.37

Any idea what Inhibitory effect (percent) was measured for CC(C)=CCc1c2c(c3occ(-c4ccc(O)c(O)c4)c(=O)c3c1O)C=CC(C)(C)O2 [YU033628, POMIFERIN, reference compound] ?
68.25

Can you look up the measured Inhibitory effect (percent) of O=c1c(O)c(-c2ccc(O)c(O)c2)oc2cc(O)cc(O)c12 [YU154882, QUERCETIN, reference compound] for me?
93.51

Recorded Inhibitory effect (percent) for O=[N+]([O-])c1cc(O)c(O)c([N+](=O)[O-])c1 [YU034463, 3,5-DINITROCATECHOL, reference compound] , please?
49.87
